Field: Vapor Pressure. Provide a value for each of the compounds that follow.
- Assay explanation: Vapor pressure measurement of pyrethroid compounds with the vapor pressure measuring apparatus
- Experimental setup: 35° C.

Quick check: Vapor Pressure of C#CC(OC(=O)C1C(C=C(C)C)C1(C)C)/C(C)=C/CC (mixture of isomers) [empenthrin] ? 2.8 × 10^−3 mmHg

Which value of Vapor Pressure has been reported for C#CCc1ccc(COC(=O)C2C(C=C(C)C)C2(C)C)o1 (mixture of isomers) [furamethrin] in the records? 7.1 × 10^−4 mmHg

For the compound shown here, CC(C)=CC1C(C(=O)OCc2cccc(Oc3ccccc3)c2)C1(C)C (mixture of isomers) [phenothrin] , give the reported Vapor Pressure. 7.7 × 10^−6 mmHg

I would be grateful if you could share the reported Vapor Pressure for COP(=O)(OC)OC=C(Cl)Cl [DDVP] . 4.6 × 10^−2 mmHg

Value lookup for Vapor Pressure; key = C=CCC1=C(C)C(OC(=O)C2C(C)(C)C2(C)C)CC1=O (racemic) [terallethrin] 1.2 × 10^−3 mmHg

Field request: Vapor Pressure | item: CC1(C)C(C=C(Cl)Cl)C1C(=O)OCc1cccc(Oc2ccccc2)c1 (mixture of isomers) [permethrin] 3.6 × 10^−6 mmHg

Report Vapor Pressure for CC1(C)C(C=C(Cl)Cl)C1C(=O)OCc1c(F)c(F)cc(F)c1F (stereo not drawn) [benfluthrin] please. 4.0 × 10^−4 mmHg

Find the recorded Vapor Pressure belonging to C#CCC1=C(C)C(OC(=O)C2C(C=C(C)C)C2(C)C)CC1=O (mixture of isomers) [prallethrin] and report it. 2.4 × 10^−4 mmHg

Would you kindly share the measured Vapor Pressure for CC(C)=CC1C(C(=O)OCc2coc(Cc3ccccc3)c2)C1(C)C (mixture of isomers) [resmethrin] ? 2.8 × 10^−5 mmHg

Recorded Vapor Pressure of CC(C)=CC1C(C(=O)OCN2C(=O)C3=C(CCCC3)C2=O)C1(C)C (stereo not drawn) [tetramethrin] , please. 1.7 × 10^−5 mmHg

Name the reported Vapor Pressure value associated with the compound CC(C)=CC1C(C(=O)OCN2C(=O)C3=C(CCCC3)C2=O)C1(C)C (mixture of isomers) [phthalthrin] 2.2 × 10^−7 mmHg

Suppose we examine the compound CC(C)=CC1C(C(=O)OC(C#N)c2cccc(Oc3ccccc3)c2)C1(C)C (racemic) [cyphenothrin] ; what Vapor Pressure value has been reported? 6.6 × 10^−6 mmHg

* * *

- Assay explanation: Vapor pressure at 30° C. on the cox diagram
- Assay type: physicochemical
Reported metric: Vapor Pressure at 30° C.

GET /values?readout=Vapor Pressure at 30° C.&item= C#CCC1=C(C)C(OC(=O)C2C(C=C(C)C)C2(C)C)CC1=O (mixture of isomers) 1.3 × 10^−4 mmHg

Give the measured Vapor Pressure at 30° C. of CC(C)=CC1C(C(=O)OCc2coc(Cc3ccccc3)c2)C1(C)C (mixture of isomers) . 1.7 × 10^−5 mmHg

Which Vapor Pressure at 30° C. is listed for C#CC(OC(=O)C1C(C=C(C)C)C1(C)C)/C(C)=C/CC (mixture of isomers) ? 1.5 × 10^−3 mmHg

Entry C#CCc1ccc(COC(=O)C2C(C=C(C)C)C2(C)C)o1 (mixture of isomers) has what Vapor Pressure at 30° C.? 4.5 × 10^−4 mmHg

I'd like to know its Vapor Pressure at 30° C.. The compound in question is C=CCC1=C(C)C(OC(=O)C2C(C=C(C)C)C2(C)C)CC1=O (stereo not drawn) 1.2 × 10^−4 mmHg

So what does the record say about Vapor Pressure at 30° C. for C=CCC1=C(C)C(OC(=O)C2C(C)(C)C2(C)C)CC1=O (racemic) ? 6.6 × 10^−4 mmHg
